system: RERF-LC-KJ; assay: relative viability (nuclei count vs DMSO), 5 days (fraction); higher = more cells survive; conditions: first compound 0.001 µM
measurement label: relative viability
Answers are plain numbers.

{"columns": ["compound", "numeric value"],
 "data": [
  ["Cc1cn(-c2cc(NC(=O)c3ccc(C)c(Nc4nccc(-c5cccnc5)n4)c3)cc(C(F)(F)F)c2)cn1 [Nilotinib] + Cc1nc(Nc2ncc(C(=O)Nc3c(C)cccc3Cl)s2)cc(N2CCN(CCO)CC2)n1 [Dasatinib] (partner 0.075 µM)", 0.716],
  ["Cc1cn(-c2cc(NC(=O)c3ccc(C)c(Nc4nccc(-c5cccnc5)n4)c3)cc(C(F)(F)F)c2)cn1 [Nilotinib] + CC(=O)Nc1cccc(-n2c(=O)n(C3CC3)c(=O)c3c(Nc4ccc(I)cc4F)n(C)c(=O)c(C)c32)c1 [Trametinib] (partner 0.02 µM)", 0.79],
  ["Cc1cn(-c2cc(NC(=O)c3ccc(C)c(Nc4nccc(-c5cccnc5)n4)c3)cc(C(F)(F)F)c2)cn1 [Nilotinib] + Cc1cc(Nc2cc(N3CCN(C)CC3)nc(Sc3ccc(NC(=O)C4CC4)cc3)n2)n[nH]1 [Tozasertib] (partner 0.1 µM)", 0.335]
]}

Entry under test: Cc1cn(-c2cc(NC(=O)c3ccc(C)c(Nc4nccc(-c5cccnc5)n4)c3)cc(C(F)(F)F)c2)cn1 [Nilotinib] + CC(C)C[C@H](NC(=O)[C@H](Cc1ccccc1)NC(=O)c1cnccn1)B(O)O [Bortezomib] (partner 0.002 µM) . Its relative viability was 1.12

The measured values listed here are drawn from the supplement of paper PMC10307832.
